method_description: yeast display, Sf9 membrane polyspecificity reagent, FACS + sequencing; frameworks hold sequencing errors
endpoint: polyreactivity (PSR sort gate)

Sample answers from the record:
QVQLVESGGGLVQAGGSLRLSCAASGITFRYNAMGWYRQAPGKERQLVAGITGSGGRTYYADSVKGRFTISRDNAKNSVYLQMNSLKPEDTAVYYCAAYPPARRTMDYWGQGTQVTVSS | low polyreactivity
QVQLVESVGGLVQAGGSLRLSCAASGYIFGHYTMRWYRQAPGKERELVAGISSGGITYYADSVKGRFTISRDNAKNTVYLQMNSLKPEDTAVYYCAVGTRVKYDYWGQGTQVTVSS | high polyreactivity
QVQLVESGGGLVQAGGSLRLSCAAYGGIFYSNGMGWYRQAPGKERELVAAITGGDITDYADSVKGRFTISRDNAKNTVYLQMNSLKPEDTAVYYCAVESYPPDYGPRFGSWGQGTQVTVSS | low polyreactivity
QVQLVESGGGLVQAGGSLRLSCAASGIFDDNAMGWYRQAPGKEREFVAAITISDGTTYYADSVKGRFTISRDNAKNTVDLQMNSLKPEDTAVYYCAADATYFFVYPSVDWQPDIMGYWGQGTQVTVSS | low polyreactivity
QVQLVESGGGLVQAGGSLRLSCAASGRIRNAMGWYRQAPGKERELVAGITWSGGRTYYADSVKGRFTISRDNAKYTVYLQMNSLKPEDTAVYYCAAATPYRYNYWGQGTQVTVSS | high polyreactivity
QVQLVESGGGLVQAGGSLRLSCAASGIIFAWYAMGWYRQAPGKERELVAGISQSGGRTYYADSVKGRFTISRDNAKNSVYLQMNSLKPEDTAVYYCAAQWYYSPYVSGDYWGQGTQVTVSS | high polyreactivity
QVQLVESGGGLVQAGGILRLSCAASGIIFGYYAMGWYRQAPGKERELVAAISSIGGSTYYADSVKGRFTISRDNAKNTVYLQMNSLKPEDTAVYYCAAKYYGRYYRYLGSSFDYWGQGTQVTVSS | high polyreactivity
QVQLVESGGGLVQAGGSLRLSCAASGSIFWKYAMGWYRQAPGKERELVAAISRSSSTTYYADSVKGRFTISRDNAKNTVYLQMNSLKPEDTAVYYCAAYYRSRVSDDYWGQGTQVTVSS | high polyreactivity

Hello, I would appreciate it if you could give polyreactivity (PSR sort gate) for each entry below.
1. QVQLVESGGGLVQAGGSLRLSCAASGSIFWTYAMGWSRQAPGKERELVATITYSDGNTYYADSVKGRFTISRDNAKNTVYFQMNSLKPEDTAVYYCNADGIYATISGYRYDYWGQGTQVTVSS
2. QVQLVESGGGLVQAGGSLRLSCAASGSTFSRNAMGWYRQAPGKERELVAAISRRGGSTYYADSVKGRFTISRDNAKNTVYLQMNSLKPEDTAVYYCNRDSSYKNNYDYWGQGTQVTVSS

[out]
["low polyreactivity", "high polyreactivity"]

[in] // polyreactivity (PSR sort gate) lookup, key: QVQLVESGGGLVQAGGSLRLSCAASGITFYVYTMGWYRQAPGKERELVAAINGSGGSTNYADSVKGRFTISRDNAKNTVFLQMNSLKPEDTAVYYCAADWSLRLYDYWGQGTQVTVSS
[out] low polyreactivity

---

method_description: yeast display, Sf9 membrane polyspecificity reagent, FACS + sequencing; frameworks hold sequencing errors
endpoint: polyreactivity (PSR sort gate)

Use the examples below as a reference point.
QVQLVESGGGLVQAGGSLRLSCAASGSTFRYYAMGWYRQAPGKERELVAAISSAGTTYYADSVKGRFTISRDNAKNTVYLQMNSLNPEETAVYYCAAKYSYYTYAGDGGLFSWSYGYWGQGTQVTVSS | low polyreactivity
QVQLVESGGGLVQAGGSLRLSCAASGSIFESNAMGWYRQAPGKEREFVAAIDWGDGSTSYADSVKGRFTISRDNAKNTVYLQMNSLKPEDTAVYYCAARSVFDLVYYNLIFDYWGQGTQVTVSS | high polyreactivity
QVQLVESGGGLVQAGGSLRLSCAASGSIFWAYTMGWYRQAPGKERELVAAISASGGSTYYADSVKGRFTISRDNAKNTFYLQMNSLKPEDTAVYYCNKDYHRPYGGGSKGDYWGQGTQVTVSS | low polyreactivity
QVQLVESGGGLVQAGGSLRLSCAASGSIFSTNALGWYRQAPGKERELVAGITRSGGRTYYADSVKGRFTISRDTAKNTVYLQMNSLKPEDTAVYYCTAVRPHRYYSWGQGSQVTVSS | high polyreactivity
QVQHVESGGGLVQAGGSLRLSCAASGSIFGRYAMGWYRPAPGKERELVAAITRSGVSTYYADSVTGRFTSARDNAKNTVDLQMNSLKPEDTAVYYCNAYYPIRSSPYGYYYWGQGTQVTVSS | high polyreactivity
QVQLVESGGGLVQAGGSLRLSCAASGRIFGFNAMGWYRQAPGKERQLVAAISGRSGRTYYADSVKGRFTISRDNAKNTVYLQLNSLIPEDTAVYYCNTVGYRGPSWYVYWGQGTQVTVSS | high polyreactivity
QVQLVESGGGLVQAGGSLRLSCADSGRTFYSYAMGWYRQAPGKERELVAAISASGGRTYYADSVKGRFTISRDNAKNTVYLQMNSLKPEDTAVYYCAAYVSGYRWGYDYWGQGTQVTVSS | high polyreactivity
QLQLVESGGGLVLAGGSLRLSCAASGYLFQRTAKGCYRQATGKVRELVSTISRGGARTSYAYSVKGRFTISSDNANNTVYLQMNSLKPEDTAVYYCAKSYRKAGGMWSYGYWGQGTQVTVSS | high polyreactivity
QVQLVESGGGLVQAGGSLRLSCAASGITFQYYAMGWYRQAPGKERELVAAITSSGVSTYYADSVKGRFTISRDNAKNTVYLQMNSLKPEDTAVYYCNTVVRGWSSSAYDDWGQGTQVTVSS | low polyreactivity
QVQLVESGGGLVQAGGSLRLSCAASGFAFSYYAMGWSRQAPGKEREFVASIDWSGGSTYYADSVKGRFTISRDNAKNTVYLQMNSLKPEDTAVYYCAAELDYFPGYDYWGQGTQVTVSS | low polyreactivity

List the reported polyreactivity (PSR sort gate) of each sequence below.
1. QVQLVESGGGLVQAGGSLRLSCAASGITFSRNVMGWSRQAPGKERELVAAISRSGGRTYYADSVKGRFTISRDNAMYTVYLQMNRLKPEDTAVYYCNRDIGGTSVLDDYWGQGNQVTVSS
2. QVQIVESGGGLVQAGGSLRLSCAASGIIFVRYDIGWYRPAPGKERELVAAISWSGGRTYYADSVKGRFTISRDNAKNTVYLQMNSLKPEDTEVYYCNAKGSYWWYQKDYWGQGTQVTVSS

[out]
["low polyreactivity", "high polyreactivity"]

Quick batch: polyreactivity (PSR sort gate) for everything below.
1. QVQLVESGGGLVQAGGSLRLSCAASGIIFSGYAMGWYRQAPGKERELVAAISSRGGGTYYADSVKGRFTISRDNAKNTVYLQMNSLKPEDTAVYYCNRVAFTYNYWGQGTQVTVSS
2. QVQLVESGGGLVQAGGSLRLSCAASGFIFGLYAMGWYRQAPGKEREFVAAISWSGGSTYYADSVKGRFTISRDNAKNTVYLQMNSLKPEDTAVYYCAREYHGDSRRYDYWGQGTQVTVSS
3. QVQLVESGGGLVQAGGSLRLSCAASGSTLGANAMGWYRQAPGKERELVAAISISDGDTYYADSVKGRFTISRDNAKNPVYLQMNSLKPEDTAVYYCAADYWFQYRWYDYWGQGTQVTVSS
4. QVQLVESGGGLVQAGGSLRLSCAASGSTFRIYAMGWYRQAPGKERELVAAISWSSGSTYYADSVKGRFTISRDNAKNTVYFQMNSLKPEDTAVYYCATYARRSGYYYWGQGTQVTVSS

[out]
high polyreactivity
high polyreactivity
high polyreactivity
high polyreactivity

Dear colleague, could you please provide polyreactivity (PSR sort gate) for the sequences listed below?
1. QVQLVESGRGLFQAGGSLRISCAPSGSNFGYYTMGWYRQAPGKDRELVAAITWSGGSTYYADSVKGRFTISRDNAKNTDYLQMYSLKPEDTAVYYCAADGFYYRNWGRIRYYYWGQGTQVTVSS
2. QVQLVESGGGIVQAGGSLRLSCAASGRIFGGNSMGWYRQAPGKERELVAAITTSGGSTYYADSVKGRFTISRDNAKNTVYLQMNSLKPEDTAVYSCAAGIGDSYWYRRYGYWGQGTQVTVSS
3. QVQLVESGGGLVQAGGSLRLSCAASGSIFYVYAMGWYRQAPGKERELVAAINTSGGSTFYADSVKGRFTISRDNAKNTVYLQMNSLKPEDTAVYYCAAERFRYRSTDTMGYWGQGTQVTVSS
4. QVQHVESGGGLVQAGGSLRLSCAASGFTFWYYAMGWYRRATGKERELIASISSIGGSTYYADSVKGRYTISRDNAKNTVYLQMNSLKAEDTAVYYCAARYKFLRGGVRRDYWGQGTQVTVSS
5. QVQLVESGGGLVQAGGSLRLSCAASGRTLFPYAMGWYIQAPGKERELVAAITSRGTSTYYADSVKGRFTISRDIAKNNVYLQMNSLKPEDTAVYYCAKDGWFWGWRFDYCGQGTQVTVSS

[out]
low polyreactivity
low polyreactivity
low polyreactivity
high polyreactivity
low polyreactivity

Reference source: the nanobody polyreactivity screen of Harvey et al. (2022)
